assay: soluble fraction after stress (log2 fold change); higher = more stays soluble; pooled small domains, quantitative proteomics; details: stress: 75 degC;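 further: 20 min heating vs room temperature control held 20 min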
Entries are sorted into classes by soluble fraction (log2) as follows: bottom = under -1, middle = from -1 up to 0.02, top = 0.02 and over

Enquiry: Textbook exercise: identify the category of the sequence given here, "HMSNQLAVPDVTNMKANAAADRLRQQGLRVELKTESSNTVPRGMAIRTDPAASTMVARGGRVTLIISSGKG" , according to its measured value.
Return: middle

Enquiry: Textbook exercise: identify the category of the sequence given here, "HMDTIGSKVLAFLAGNLLDPTPFNYRFGYLYLNRTSKVIVEETDTYIDSGMRMTQEAVAEIMQKFAQ" , according to its measured value.
Return: bottom

Enquiry: Textbook exercise: identify the category of the sequence given here, "HMSFVAYEEEKAIGMVRLIGDGGMSFYIKDFAVLPGHQGKGVGQMLLMELQQYLLEHKPADWAVSLE" , according to its measured value.
Return: middle

Enquiry: Textbook exercise: identify the category of the sequence given here, "HMLDPVLQREKDESFTDYHIRLFKNKDTYHIDTKTIATLLNKDQGTNYDESKWRKDFKQYERWNDYIMSKN" , according to its measured value.
Return: top

Enquiry: Textbook exercise: identify the category of the sequence given here, "HMRNSFTVENTGERLDVFLTGQMPEFSRSHIQKLIASGQAWVNGVNRKGNFKLKPHDVVELEVPEPE" , according to its measured value.
Return: top

Enquiry: Textbook exercise: identify the category of the sequence given here, "HMGGLSAEQKNGIQSVLKNFDPKNLTSADAKSITSEFKKLGVQPGKDLETTMAASGFDAKEVGRLAF" , according to its measured value.
Return: top

Enquiry: Textbook exercise: identify the category of the sequence given here, "HMRQSIHTALQLLTPREEEVLNLLVSGKSNKQVAEHFSLSSKTIERHRSSVMRKLDASSFAQLVRIAALR" , according to its measured value.
Return: bottom

Enquiry: Textbook exercise: identify the category of the sequence given here, "HMYTLGEESDGTVRLLELYDIIKNKNEKIFVVDELDRSLHPNLTFNFVKKYLSIENKSQLIVSTH" , according to its measured value.
Return: top

Enquiry: Textbook exercise: identify the category of the sequence given here, "HMHNPSYDMSKDVDILVMKFRDYNNLTDDEARFLLDKAKDAYYNTGKEILSDNEYDTLEKSLGQE" , according to its measured value.
Return: middle

Enquiry: Textbook exercise: identify the category of the sequence given here, "HMHANAALTPRQRLRLAQKIVDEEWTVAAAADYFRVSWPTAAKWARRYVELGEAGMADRSSRP" , according to its measured value.
Return: bottom

Enquiry: Textbook exercise: identify the category of the sequence given here, "HMLKGTVKWFNESKGFGFIEQEEGKDVFVHYSAITGSGFKTLNEGDKVQFEIVDGPKGPAAANVSK" , according to its measured value.
Return: top

Enquiry: Textbook exercise: identify the category of the sequence given here, "HMNTKLKPLYLLDIFREMTDERHRMTVPELLEELQRRGITAERKGIYRDIDALIQYGADIKHTGTGYYLAR" , according to its measured value.
Return: middle

Enquiry: Textbook exercise: identify the category of the sequence given here, "HMGRYDWIEQIDDPVLAERLKHLTEDDLELLTRYVFEDATQKELASQYGIGQQSVSKRLKKLKSFLTK" , according to its measured value.
Return: middle

Enquiry: Textbook exercise: identify the category of the sequence given here, "HMEDEISLGAINVPRGSVIVTAGGARLVEGSDYTVDYYSGTVKILNKSLLDAGTPINVSLET" , according to its measured value.
Return: middle

Enquiry: Textbook exercise: identify the category of the sequence given here, "HMNYTQAQIDRANAVSLEDFLRTQGETLIKSGREYRWKEHDSLTVRGNKWFRHSQSKGGYPIDFVMEFTA" , according to its measured value.
Return: top

Enquiry: Textbook exercise: identify the category of the sequence given here, "HMEDAFLQRLISIIEANLSNVDFNVKMLAEQLNMSQPTLYRKVKQRSELSVIDMIRSIRILSLIHISEPTR" , according to its measured value.
Return: bottom

Enquiry: Textbook exercise: identify the category of the sequence given here, "HMEVGDTYLGKVTRVSSFGAFIEVLPGKEGLMRQNDAGEGGMPEVGDEVMVRVMEVDHLGRINLSGKLDD" , according to its measured value.
Return: middle

Enquiry: Textbook exercise: identify the category of the sequence given here, "HMKEETEMVTIPDVTGKPLTEAANLLREAKLDYLAESTGTSVTKQMPLPGAEVMVNTTVLLYTG" , according to its measured value.
Return: top

Enquiry: Textbook exercise: identify the category of the sequence given here, "HMGTRYVEFVIPGTGNHEVRIVSSNGSRQNVEVAGTYPGGARLRTKVDNGVRRVSFYVDNRLVEEKQ" , according to its measured value.
Return: middle

Enquiry: Textbook exercise: identify the category of the sequence given here, "HMQEDKSKYLFQRGTAITVLRPAGIVRIGKERVDAVSNGSYIDRGVAVRVIEVEGTRVVVEPVPE" , according to its measured value.
Return: middle

Enquiry: Textbook exercise: identify the category of the sequence given here, "HMAAPLTDRETEVLTLLARGLINKQIAEELHIGLTTVITHRRNIMEKLRVRSLAELILRAVAAGYVDAGR" , according to its measured value.
Return: bottom

Enquiry: Textbook exercise: identify the category of the sequence given here, "HMDASFTYSLETHPAGVLVRVDGLEYETPFSILLPQGVHRLEVAGEERFFYLSETTHQFLEID" , according to its measured value.
Return: bottom

Enquiry: Textbook exercise: identify the category of the sequence given here, "HMAEVPSLIGKSLDAAKQAIIDAGFKVGSVSYDNSDSYGKGQVMWQQYEPSTKVKKGSSISIKVSKGS" , according to its measured value.
Return: middle

Enquiry: Textbook exercise: identify the category of the sequence given here, "HMFDPTDLPEKQLMVYEIIKSNNGINMTNIASLLGFNKTTVDNAIRALKKKEIVVFKGTNRSGGYFNT" , according to its measured value.
Return: bottom

Enquiry: Textbook exercise: identify the category of the sequence given here, "HMESPLEQLTNRELQTLQMLGKGLSTKQIAAQLNLSVKTVETYRENLKRKLNLDSGSELIRYAIHRSNE" , according to its measured value.
Return: top

Enquiry: Textbook exercise: identify the category of the sequence given here, "HMREWPLWEIFIRGQHGLNHRHVGSLHAPDAAMAIGNARDVYTRRNEGVSIWAVRSADVVASVPSE" , according to its measured value.
Return: bottom

Enquiry: Textbook exercise: identify the category of the sequence given here, "HMGGRRHANMSREEEAAFLAPFFEKAAQGGILVVREIRQALDAHLGRTVPLSTVYNLLHRHNWRKL" , according to its measured value.
Return: bottom

Enquiry: Textbook exercise: identify the category of the sequence given here, "HMAPLATLEADGNGAVKLPNLAGHAIREVAAALGGANLALIPIGSGTSWKQNPAPGTILHKGDTVTVYF" , according to its measured value.
Return: top

Enquiry: Textbook exercise: identify the category of the sequence given here, "HMQIAEAESLGQRLLQQSINNIVGRDEAITEERLNRVLSQYSLTGRDELMAQIGLGNRNSSLVAKAMYDI" , according to its measured value.
Return: middle

Enquiry: Textbook exercise: identify the category of the sequence given here, "HMNIFAHQIGKLRTERHLSQTDVAKRLYVSRQAVSKWENGDAEPSLDNLIALAKLFNVSLDNLITGQ" , according to its measured value.
Return: bottom

Enquiry: Textbook exercise: identify the category of the sequence given here, "HMAGTGKVNTGVANVRSGPGTNYEISGKIYADTEVSILETSNGWYKIKFGNLTGWMSGTVLDIK" , according to its measured value.
Return: middle

Enquiry: Textbook exercise: identify the category of the sequence given here, "HMTPPLSKIRNMTPDQQRSSVIEARKKGYNLLQLEGLAKAQGATPADLLVLRNAWAQSEFDQKR" , according to its measured value.
Return: top

Enquiry: Textbook exercise: identify the category of the sequence given here, "HMKLARGEFEIMAKFIKEISGISLEQNKTYLIESRLSDLAESEGVKTFSDFFFKAKFNKILKEKIIDAI" , according to its measured value.
Return: bottom
